Test system: Micrococcus luteus
assay: Bactericidal activity against gram-positive Micrococcus luteus MTCC 2470 incubated for 24 hrs followed by microbial sample growth at Mueller Hinton agar plates
Type: functional
condition notes: MTCC 2470, 24 h
property label: MBC (µg/mL)
Form entry: value (µg/mL) — number only.

Fill in: MBC of CCOC(=O)c1c(N2CCN(c3ccccc3F)CC2)c2ccccc2n(C)c1=O is ___
7.8

Fill in: MBC of O=C(O)c1cn(C2CC2)c2cc(N3CCNCC3)c(F)cc2c1=O [CIPROFLOXACIN] is ___
0.9

Fill in: MBC of CCOC(=O)c1c(N2CCN(c3cccc(OC)c3)CC2)c2ccccc2n(CC)c1=O is ___
15.6

Fill in: MBC of CCOC(=O)c1c(N2CCN(c3ccc(F)cc3)CC2)c2ccccc2n(CC)c1=O is ___
7.8

Fill in: MBC of CCOC(=O)c1c(N2CCCC2)c2ccccc2n(CC)c1=O is ___
15.6

* * *

Tested on: Escherichia coli
assay: Bactericidal activity against gram-negative Escherichia coli MTCC 739 incubated for 24 hrs followed by microbial sample growth at Mueller Hinton agar plates
Type: functional
condition notes: MTCC 739, 24 h
Exercise: for every item that follows, state its recorded MBC.
Form entry: value (µg/mL) — number only.

Fill in: MBC of CCOC(=O)c1c(N2CCN(c3ccccc3C(F)(F)F)CC2)c2ccccc2n(CC)c1=O is ___
15.6

Fill in: MBC of O=C(O)c1cn(C2CC2)c2cc(N3CCNCC3)c(F)cc2c1=O is ___
0.9

Fill in: MBC of CCOC(=O)c1c(N2CCN(c3ccc(F)cc3)CC2)c2ccccc2n(CC)c1=O is ___
7.8

Fill in: MBC of CCOC(=O)c1c(N2CCN(c3ccccc3F)CC2)c2ccccc2n(C)c1=O is ___
7.8

* * *

Tested on: Micrococcus luteus
assay: Antibacterial activity against gram-positive Micrococcus luteus MTCC 2470 after 24 hrs by agar well diffusion method
Assay type: functional
condition notes: MTCC 2470, 24 h
Exercise: for every item that follows, state its recorded MIC.
Form entry: value (µg/mL) — number only.

Recall the recorded MIC for CCOC(=O)c1c(N2CCCC2)c2ccccc2n(CC)c1=O with Micrococcus luteus and state it.
7.8

Recall the recorded MIC for O=C(O)c1cn(C2CC2)c2cc(N3CCNCC3)c(F)cc2c1=O with Micrococcus luteus and state it.
0.9

Recall the recorded MIC for CCOC(=O)c1c(N2CCN(c3ccc(F)cc3)CC2)c2ccccc2n(CC)c1=O with Micrococcus luteus and state it.
3.9

Recall the recorded MIC for CCOC(=O)c1c(N2CCN(c3cccc(OC)c3)CC2)c2ccccc2n(CC)c1=O with Micrococcus luteus and state it.
7.8

Recall the recorded MIC for CCOC(=O)c1c(N2CCN(c3ccccc3F)CC2)c2ccccc2n(C)c1=O with Micrococcus luteus and state it.
3.9

* * *

Test system: Candida albicans
assay: Fungicidal activity against Candida albicans MTCC 3017 incubated for 24 hrs followed by microbial sample growth Sabouraud dextrose agar plates
Format: functional
condition notes: MTCC 3017, 24 h
property label: MFC

Fill in: MFC of CCOC(=O)c1c(N2CCN(c3ccccc3C(F)(F)F)CC2)c2ccccc2n(CC)c1=O is ___
15.6 µg/mL

Fill in: MFC of CCOC(=O)c1c(N2CCN(c3ccc(F)cc3)CC2)c2ccccc2n(CC)c1=O is ___
7.8 µg/mL

Fill in: MFC of CCOC(=O)c1c(N2CCN(c3ccc(F)cc3)CC2)c2ccccc2n(C)c1=O is ___
15.6 µg/mL

Fill in: MFC of CCOC(=O)c1c(N2CCN(c3ccccc3F)CC2)c2ccccc2n(C)c1=O is ___
7.8 µg/mL

Fill in: MFC of Clc1ccc(COC(Cn2ccnc2)c2ccc(Cl)cc2Cl)c(Cl)c1 (stereo unspecified) is ___
7.8 µg/mL

Fill in: MFC of CCOC(=O)c1c(N2CCN(c3ccccc3C(F)(F)F)CC2)c2ccccc2n(C)c1=O is ___
15.6 µg/mL

* * *

Exercise: for every item that follows, state its recorded Ki.
system: 4,4'-diapophytoene synthase (Staphylococcus aureus, UniProt A9JQL9)
Sequence (A9JQL9 whole entry): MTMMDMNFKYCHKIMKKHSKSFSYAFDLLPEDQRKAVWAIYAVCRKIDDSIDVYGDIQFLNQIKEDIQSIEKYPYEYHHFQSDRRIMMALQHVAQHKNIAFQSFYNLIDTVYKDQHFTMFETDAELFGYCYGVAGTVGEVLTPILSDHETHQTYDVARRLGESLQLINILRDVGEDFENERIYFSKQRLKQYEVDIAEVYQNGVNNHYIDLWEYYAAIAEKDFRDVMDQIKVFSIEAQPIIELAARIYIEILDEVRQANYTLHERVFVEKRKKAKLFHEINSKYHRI
Form entry: value (µM) — number only.

Fill in: Ki of CCOC(=O)c1c(N2CCN(c3ccc(F)cc3)CC2)c2ccccc2n(CC)c1=O is ___
6.89

Fill in: Ki of CCOC(=O)c1c(N2CCN(c3ccc(F)cc3)CC2)c2ccccc2n(C)c1=O is ___
1.26

Fill in: Ki of CCOC(=O)c1c(N2CCN(c3cccc(OC)c3)CC2)c2ccccc2n(CC)c1=O is ___
15.7

Fill in: Ki of CCOC(=O)c1c(N2CCN(c3ccccc3F)CC2)c2ccccc2n(CC)c1=O is ___
8.33

Fill in: Ki of CCOC(=O)c1c(N2CCN(C(=O)OC(C)(C)C)CC2)c2ccccc2n(CC)c1=O is ___
20.2

Fill in: Ki of CCOC(=O)c1c(N2CCN(c3ccccc3OC)CC2)c2ccccc2n(CC)c1=O is ___
14

Fill in: Ki of CCOC(=O)c1c(N2CCN(c3ccccc3OC)CC2)c2ccccc2n(C)c1=O is ___
19.8

Fill in: Ki of CCOC(=O)c1c(N2CCN(C(=O)OC(C)(C)C)CC2)c2ccccc2n(C)c1=O is ___
5.19

Fill in: Ki of CCOC(=O)c1c(N2CCN(c3ccccc3F)CC2)c2ccccc2n(C)c1=O is ___
7.87

Reference source for all entries: ChEMBL document CHEMBL4219137
